- System: NCI-H226 lung
- protocol.notes: NCI tumour cell line growth inhibition, 48 h
recorded.endpoint: TGI

For the compound Clc1ccc(CCNCCNC2(c3cc4ccccc4s3)CCCCC2)cc1Cl , what TGI is on record? 3.64 µM

Which TGI is reported for this compound? CC(=O)Nc1ccc2c(c1)[nH]c(=O)c1cc(NC(C)=O)ccc12 > 100 µM

Fill in the blank: the reported TGI of C=C1CC2(CC(c3ccccc3C)OC(c3ccccc3C)C2)OC1=O (stereo not given) is ____. 18.7 µM

So what's the measured TGI for this one? Nc1ccc2ncc(NCc3ccc(F)cc3)nc2c1 > 100 µM

###

- Tested on: PC-3 prostate
- protocol.notes: NCI tumour cell line growth inhibition, 48 h; in the data active = GI50 below about 0.43 µM; inactive = the rest
Give one outcome, nothing more. List: T (active), F (inactive)

Check out these entries, answers already filled in.
compound="COc1ccc(C2CC(=O)Nc3c2c(C)nn3-c2nc3ccccc3[nH]2)cc1OC (centres undefined)" tested_target="PC-3 prostate" group=F
compound=COc1cccc(/C=C/C(=O)c2cc3c(N)c(C(=O)Nc4ccccc4)sc3nc2C)c1 tested_target="PC-3 prostate" group=F
compound=Cn1cc(-c2nc(-c3c[nH]c4ccccc34)cs2)c2cccnc21 tested_target="PC-3 prostate" group=T

Please share the test call associated with COc1ccc(N2CCN(c3nc(-c4ccccn4)nc4sc5c(c34)CCCCCC5)CC2)cc1 . F

###

- Test system: HCT-116 colon
- protocol.notes: NCI tumour cell line growth inhibition, 48 h
Overview of recorded TGI for various molecules

# example entries with known answers
molecule="COC(=O)C12CCC(CC1=O)C2(C)C (stereo not drawn)" reported_result="> 100 µM"
molecule="Cc1cc(C2CC(O)C(CO)O2)c(Br)cc1Br (stereo not drawn)" reported_result="> 100 µM"
molecule=O=Cc1cc2sc(C=O)cc2s1 reported_result="> 100 µM"
molecule="NC1=NN(c2ccccc2)C(=O)C1/C(=N\\NC(=O)c1cc2ccccc2cc1O)C(=O)Nc1ccc(Cl)c(Cl)c1 (stereo not drawn)" reported_result="> 100 µM"
molecule="COc1ccc(C2[C@@H](Cl)C(=O)N2c2ccc(OC)cc2)cc1 (stereo partly drawn)" reported_result="> 100 µM"
molecule=COc1cccc(/C=C/C(=O)c2cc3c(N)c(C(=O)Nc4ccccc4)sc3nc2C)c1 reported_result="1.58 µM"
molecule=COc1ccccc1-c1nc[nH]c1-c1ccccc1OC reported_result="> 100 µM"
molecule=COc1ccc2nc3c(nc2c1)C(C)(C)C=C3c1ccc(Br)cc1 reported_result="> 100 µM"
molecule=O=C(/C=C/c1cc2ccccc2[nH]c1=O)c1ccc(O)cc1 reported_result="4.38 µM"
molecule=CS(=O)(=O)Nc1cc(-c2ccc3ncnc(Nc4ccc(OCc5ccccn5)c(Cl)c4)c3c2)cnc1Cl reported_result="> 100 µM"

Any idea what its TGI is? The molecule is COc1cc(N2CCN(C(C)C)CC2)ccc1Nc1nc(Nc2ccc(F)cc2C(N)=O)c2cc[nH]c2n1 3.6 µM

What value of TGI has been reported for the following molecule? CCN(Cc1c(F)cccc1C(F)(F)F)c1ccc(CO)c(Cl)c1 11.8 µM

I would be grateful if you could share the reported TGI for O=[N+]([O-])c1ccc(NC(c2ccccc2)c2ccc3cccnc3c2O)cc1 (stereo not drawn) . > 55.9 µM

###

- System: CAKI-1 renal
- protocol.notes: NCI tumour cell line growth inhibition, 48 h
Quick reference for GI50 among some compounds

compound=CCN(Cc1c(F)cccc1C(F)(F)F)c1ccc(CO)c(Cl)c1 reported_result="10.2 µM"

What measured GI50 goes with CCN1C(=O)N(CC)C2C1NN=c1s/c(=C\c3ccc(Br)cc3)c(=O)n12 (configuration not stated) ? 0.065 µM

Item CC(C)Cc1cc(-c2cccn2C)c(C#N)c(=O)[nH]1 has what recorded GI50? > 100 µM

Which value of GI50 has been reported for Nc1ncnc2c1ncn2Cc1ccc(CCl)cc1 in the records? 14.3 µM

Which GI50 is reported for this compound? O=C(Nc1n[nH]c2cc(-c3ccc(F)cc3)ccc12)C1CC1 9.75 µM

Look up GI50 for this compound: CS(=O)(=O)Nc1cc(-c2ccc3ncnc(Nc4ccc(OCc5ccccn5)c(Cl)c4)c3c2)cnc1Cl 1.09 µM

Tell me the measured GI50 of CN1CCN(CCCn2c3c(sc4ncccc43)c(=O)n3nnc(-c4ccccc4)c23)CC1 , please. 1.59 µM

###

Quick list: TGI per entry.
- Tested on: DU-145 prostate
- protocol.notes: NCI tumour cell line growth inhibition, 48 h

Answered examples (3):
compound="COc1c(C(=O)CC2c3c(cc4oc(C)cc(=O)c4c3OC)OC(=N)C2c2nc3ccccc3[nH]2)c(O)c(OC)c2occc12 (stereo not given)" recorded_endpoint=TGI reported_result="> 100 µM"
compound="CCN1C(=O)N(CC)C2C1NN=c1s/c(=C\\c3ccc(Br)cc3)c(=O)n12 (stereo not given)" recorded_endpoint=TGI reported_result="> 100 µM"
compound="N/C(=N/O)NOCCC(N)C(=O)O (stereo not given)" recorded_endpoint=TGI reported_result="> 100 µM"

# input compound: Cc1cc(C2CC(O)C(CO)O2)c(Br)cc1Br (stereo not given) ; wanted: its TGI > 100 µM

Give the measured TGI of CC(=O)OCc1cc[c]([Hg][Cl])o1 . 26.4 µM

###

- Test system: SR leukemia
- protocol.notes: NCI tumour cell line growth inhibition, 48 h
recorded.endpoint: TGI (µM)
Give a bare numeral; the unit µM is implied.

Solved entries (count: 3):
molecule="C/C=C1/CN2CCC34c5ccccc5N5C(=O)C(C6CC78c9ccccc9N9C(=O)C=CC(C%10CC7N6C/C%10=C/C)C98)=CC(C1CC23)C54 (stereo unspecified)" reported_result=50
molecule=COc1cccc(/C=C/C(=O)c2cc3c(N)c(C(=O)Nc4ccccc4)sc3nc2C)c1 reported_result=6.46
molecule=COc1cc(/C=C/[N+](=O)[O-])cc(OC)c1 reported_result=5.45

Field request: TGI | item: O=C1/C(=C/Cc2ccco2)N=C(c2ccccc2)N1c1nc2ccc(Sc3ccccc3)cc2[nH]1 54.6

Which TGI value belongs to CCOC1=C2N=C(C(CC)c3ccc(F)cc3)N=C2C(=O)c2ccccc21 (stereo unspecified) ? 89.2

Field request: TGI | item: Cc1cc2nc3c(C)c4ccccc4c(C)n3c2cc1C 9.01

What TGI value was documented for this molecule, Clc1ccc(CCNCCNC2(c3cc4ccccc4s3)CCCCC2)cc1Cl ? 4.19

###

- System: OVCAR-8 ovarian
- protocol.notes: NCI tumour cell line growth inhibition, 48 h
TGI by entry:

compound="NC(=O)C1CCCN1Cc1ccc2c(c1)OCO2 (configuration not stated)" reported_result="> 100 µM"
compound="CC(=O)[C@H]1CC[C@@H]2[C@]1(C)CC=C1[C@]23C=C[C@]2(C[C@@H](O)CC[C@]12C)C(C(=O)O)C3C(=O)O (some centres not stated)" reported_result="> 100 µM"
compound="O=S1c2ccccc2N=C(c2cccs2)CC1c1ccccc1O (configuration not stated)" reported_result="> 100 µM"

Value lookup for TGI; key = N/C(=N/O)NOCCC(N)C(=O)O (configuration not stated) > 100 µM

Fill in: TGI of O=C(O)C(=Cc1ccc(-c2ccc([N+](=O)[O-])cc2)o1)C(=O)O is ___ > 100 µM

What value of TGI has been reported for the following compound? CC(=O)Nc1ccc(S(=O)(=O)Nc2cnc3ccccc3n2)cc1 > 100 µM

Request the reported TGI associated with Cc1nc2cc3[nH]c4ccccc4c(=O)c3cc2s1 > 100 µM

Consider the compound shown here: c1ccc(C(OCCN2CC3CCC(C2)N3)c2ccccc2)cc1 What is its recorded TGI? > 100 µM

What value of TGI has been recorded for this entry: COc1ccc(-c2oc(C=Nc3ccccc3)c([N+](=O)[O-])c2-c2ccc(OC)c(OC)c2)cc1OC > 100 µM

Fill blank: measured TGI of the compound CCCCCCCCCCCCCC(=O)OCC1OC(=O)C(O)C1O (configuration not stated) is ____. > 100 µM

Which TGI value belongs to Cc1cc(C2CC(O)C(CO)O2)c(Br)cc1Br (configuration not stated) ? > 100 µM

###

- Tested on: HCC-2998 colon
- protocol.notes: NCI tumour cell line growth inhibition, 48 h
recorded.endpoint: TGI

compound="C#CCN1C(=O)CN2C(Cl)(Cl)C2(c2ccccc2)c2cc(Cl)ccc21 (stereo unspecified)" reported_result="> 100 µM"
compound=CCN(Cc1c(F)cccc1C(F)(F)F)c1ccc(CO)c(Cl)c1 reported_result="33 µM"
compound=CN1c2cccc[c]2[Sn]([CH3])([CH3])[c]2ccccc21 reported_result="0.0247 µM"

Moving on to the next compound.
Give the reported TGI for O=C(NC12CC3CC(CC(C3)C1)C2)n1cnc2c(Cl)ncnc21 (system: HCC-2998 colon). 38.9 µM
